B1: INTS3 (parent)
chain: FHPIKETVVEEPVDITPYLDQLDE

Variants of: B1
Test: protein stability index of a GFP-peptide fusion (GPS, HEK-293T) (PSI 1-6); higher = more stable;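 further: lentivirally expressed fusions sorted by FACS into six bins by GFP to DsRed ratio, PSI derived from sequencing read proportions per bin multiplied by bin number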
Settings: c terminus: a fixed tail appended
Given measured protein stability index, output t if it is greater than or equal to 4 and f if not.

• T7S = f
• T16E = f
• E11T = f
• Q21I = f
• V8A = f
• T16K = f
• E11L = f
• P12T = f
• E24T = f
• E24W = f
• K5M = t
• F1I = t
• E11H = f
• T16I = f
• P12L = f
• L19K = f
• H2G = t
• D20E = f
• T7K = f
